biological target: Hypoxia-inducible factor 1-alpha (Homo sapiens) (UniProt Q16665); assay: ATG_HIF1a_CIS: Attagene CIS-FACTORIAL HepG2 Assay for human Hypoxia Inducible Factor 1 (HIF1A) (AID 2282951); details: HepG2 Attagene cis-factorial HIF1a reporter transcription; actives raise or lower the signal
Sequence (Q16665 whole entry, looked up): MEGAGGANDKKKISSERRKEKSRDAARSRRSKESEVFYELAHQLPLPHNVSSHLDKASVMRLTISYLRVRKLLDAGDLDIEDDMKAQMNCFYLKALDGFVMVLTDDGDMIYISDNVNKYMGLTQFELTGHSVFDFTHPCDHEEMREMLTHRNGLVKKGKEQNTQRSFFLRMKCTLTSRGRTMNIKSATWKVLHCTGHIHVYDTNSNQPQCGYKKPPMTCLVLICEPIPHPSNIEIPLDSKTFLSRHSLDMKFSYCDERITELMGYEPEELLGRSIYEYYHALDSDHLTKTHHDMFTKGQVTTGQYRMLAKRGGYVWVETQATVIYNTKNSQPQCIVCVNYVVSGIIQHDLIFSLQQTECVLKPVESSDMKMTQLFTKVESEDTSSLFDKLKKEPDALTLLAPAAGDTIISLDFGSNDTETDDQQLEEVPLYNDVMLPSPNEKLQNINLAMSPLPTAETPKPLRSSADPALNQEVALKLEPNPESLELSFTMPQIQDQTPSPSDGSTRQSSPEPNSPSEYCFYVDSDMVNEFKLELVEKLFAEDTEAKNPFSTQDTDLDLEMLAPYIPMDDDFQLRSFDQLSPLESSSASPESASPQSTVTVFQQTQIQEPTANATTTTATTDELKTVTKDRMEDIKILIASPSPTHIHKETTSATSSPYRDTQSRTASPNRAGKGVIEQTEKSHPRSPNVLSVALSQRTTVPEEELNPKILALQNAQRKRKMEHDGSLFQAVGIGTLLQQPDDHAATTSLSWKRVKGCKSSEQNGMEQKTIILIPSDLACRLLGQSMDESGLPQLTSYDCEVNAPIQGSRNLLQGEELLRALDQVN
The source made the active and inactive calls. How the source made its calls: active means hit-call score of the fitted dose curve at least 0.9, where 1 is the maximum; inactive means score below 0.9.
Labels: active, inactive

> print(dat)
                                    compound  classification
 1                  CCOP(=S)(OCC)SCSC(C)(C)C        inactive
 2  C[C@]12CCC(=O)C=C1CC[C@@H]1[C@@H]2CC[C@@]2(C)[C@H]1CC[C@]2(C)O        inactive
 3  CC(C)C(=O)OCC(C)(C)C(OC(=O)C(C)C)C(C)C (centres undefined)        inactive
 4                                 C=CC(N)=O          active
 5  Cc1ccccc1CO[C@@H]1C[C@@]2(C(C)C)CC[C@]1(C)O2        inactive
 6   CCC(C)(CC)c1cc(NC(=O)c2c(OC)cccc2OC)on1          active
 7  O=S(=O)(O)C(F)(F)C(F)(F)C(F)(F)C(F)(F)C(F)(F)C(F)(F)F        inactive
 8          CN(C)c1nc(=O)n(C2CCCCC2)c(=O)n1C        inactive
 9          CCCCCCOC(=O)c1ccccc1C(=O)OCCCCCC        inactive
10  ClC1=C(Cl)[C@]2(Cl)[C@@H]3[C@@H]4C[C@@H]([C@H]5O[C@@H]45)[C@@H]3[C@@]1(Cl)C2(Cl)Cl        inactive
11                   Clc1ccc(C(Cl)(Cl)Cl)cc1        inactive
12                              CCOCCOC(C)=O        inactive
13  Cc1cc2c3c(c1)C(c1ccccc1)=N[C@@H](NC(=O)c1ccncc1)C(=O)N3CC2          active
14            CCCCCCCCCC[N+](C)(C)CCCCCCCCCC        inactive
15  ClC1=C(Cl)[C@]2(Cl)[C@@H]3[C@H]4C[C@H]([C@@H]5O[C@H]45)[C@@H]3[C@@]1(Cl)C2(Cl)Cl        inactive
16    CCOC(=O)C(O)(c1ccc(Cl)cc1)c1ccc(Cl)cc1          active
17  Oc1ccc(C(c2ccc(O)cc2)(C(F)(F)F)C(F)(F)F)cc1        inactive
18  O=C(NC(=O)c1cc(F)c(F)cc1Cl)Nc1cc(F)ccc1N1CCC(C(=O)O)CC1        inactive
19                    O=NN(c1ccccc1)c1ccccc1        inactive
20                     CCSC(=O)N(CC)C1CCCCC1        inactive
21  ClC1=C(Cl)[C@]2(Cl)[C@@H]3[C@@H](Cl)[C@H]4O[C@H]4[C@@H]3C1(Cl)C2(Cl)Cl        inactive
22                     Cc1ccccc1[N+](=O)[O-]        inactive
23                             Cc1cccc(C)c1N        inactive
24                       c1ccc(-c2ccccc2)cc1        inactive
